experiment: Fraction unbound in dog; type: ADME, organism-based, Canis lupus familiaris; details: in vivo
endpoint: fraction unbound
One number for each entry.

Name the recorded fraction unbound for COc1cc(-c2cn(C3CCc4c(F)cccc4N(CC(F)(F)F)C3=O)nn2)ccc1-n1cnc(C)c1 (stereo unspecified) .
0.058

* * *

assay: Apparent permeability of the compound in pig LLC-PK1 cells; format: ADME, cell-based, Sus scrofa
endpoint: Papp (×10⁻⁶ cm/s)
One number for each entry, in ×10⁻⁶ cm/s.

Name the recorded Papp for COc1cc(-c2cn(C3CCc4c(F)cccc4N(CC(F)(F)F)C3=O)nn2)ccc1-n1cnc(C)c1 (stereo unspecified) .
25

* * *

biological target: Sodium-dependent serotonin transporter (Homo sapiens)
Sequence (P31645 whole entry): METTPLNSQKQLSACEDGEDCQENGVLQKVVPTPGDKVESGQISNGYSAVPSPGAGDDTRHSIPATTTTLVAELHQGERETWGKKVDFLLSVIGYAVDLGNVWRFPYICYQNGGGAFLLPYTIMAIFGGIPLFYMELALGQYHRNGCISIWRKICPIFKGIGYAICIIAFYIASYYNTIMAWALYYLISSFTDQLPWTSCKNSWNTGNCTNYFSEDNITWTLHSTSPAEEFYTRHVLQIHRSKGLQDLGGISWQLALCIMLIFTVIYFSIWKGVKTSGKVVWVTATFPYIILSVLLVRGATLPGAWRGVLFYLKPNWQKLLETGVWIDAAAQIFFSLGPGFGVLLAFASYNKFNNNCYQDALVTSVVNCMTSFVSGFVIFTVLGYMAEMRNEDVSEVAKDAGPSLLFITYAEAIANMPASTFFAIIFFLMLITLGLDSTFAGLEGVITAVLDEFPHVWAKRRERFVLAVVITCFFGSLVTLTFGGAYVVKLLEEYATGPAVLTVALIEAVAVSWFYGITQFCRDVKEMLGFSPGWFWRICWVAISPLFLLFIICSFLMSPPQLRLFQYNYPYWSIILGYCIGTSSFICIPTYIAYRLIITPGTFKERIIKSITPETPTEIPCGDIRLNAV
endpoint: pIC50
Give bare numbers, as −log10 of the molar value.

Name the recorded pIC50 for COc1cc(-c2cn(C3CCc4c(F)cccc4N(CC(F)(F)F)C3=O)nn2)ccc1-n1cnc(C)c1 (stereo unspecified) .
7.49

Ref: ChEMBL document CHEMBL3608254
